Numbers sourced from patent US20120316105A1.

# maps each entry to its CC50 at 24 h
assay: Cytotoxicity assay (LDH release), hRPTEC; format: cell-based, human; details: human
Bridge positions count the residues as written; N and C are the ends. Square brackets hold non-standard residues; d marks the D form. Peptide text beside a SMILES is read from it. * marks the point of attachment. X19 = N#Cc1ccc(-c2cccc(C(=O)*)c2)nc1; X11 = Cc1ccccc1-c1cccc(C(=O)*)c1; Dab = NCC[C@H](N)C(=O)O; Dap = NC[C@H](N)C(=O)O
The figure you give is taken to be in µM; do not add the unit.

Entry CC(C)C[C@@H]1NC(=O)[C@@H](Cc2ccccc2)NC(=O)[C@H](CCN)NC(=O)[C@@H](NC(=O)[C@H](CN)NC(=O)[C@@H](NC(=O)[C@H](CCN)NC(=O)c2cccc(-c3ccc(C#N)cn3)c2)[C@@H](C)O)CCNC(=O)[C@H]([C@@H](C)O)NC(=O)[C@H](CCN)NC(=O)[C@H](CCN)NC1=O [Example 26] (X19-[Dab]T[Dap][Dab][Dab][dF]L[Dab][Dab]T; lactam 4-C) — recorded CC50 at 24 h = 77

Let us move to another entry and its CC50 at 24 h.
// Cc1ccccc1-c1cccc(C(=O)N[C@@H](CCN)C(=O)N[C@H](C(=O)N[C@@H](CN)C(=O)N[C@H]2CCNC(=O)[C@H]([C@@H](C)O)NC(=O)[C@H](CCN)NC(=O)[C@H](CCN)NC(=O)[C@H](CC(C)C)NC(=O)[C@@H](Cc3ccccc3)NC(=O)[C@H](CCN)NC2=O)[C@@H](C)O)c1 [Example 21] (X11-[Dab]T[Dap][Dab][Dab][dF]L[Dab][Dab]T; lactam 4-C) : CC50 at 24 h value = 15
